# Tested on: THP1/LXR-Luc cells
# protocolNotes: THP1/LXR-Luc luciferase reporter bioassay
# Assay type: cell-based
# setupConditions: Homo sapiens, THP-1; 48 hours; relative to maximum activation of free payload 9d; read-out: Activation of THP1/LXR-Luc cells: Fold of activation
# Protocol: The fold activation in the cell-based assays (as described in Example 68, below) was defined based on the maximum activation of the free payload 9d. […] Additionally, a THP1 cell line was transduced with a Cignal LXR Luc Reporter (Qiagen, Cat # CLS-7041L) without the addition of Her2. […] All of the antibodies used in the subsequent bioassays were assessed for their ability to internalize and release a payload on the bioassay cell line used. […]
Where a name gives a salt, the structure may show the parent alone.
reportedMetric: Emax

C[C@]1(C(=O)NC(=O)[C@@]2(C)CCC[C@]3(C)c4cc(N5CCNCC5)ccc4CC[C@@H]23)CCC[C@]2(C)c3cc(O)ccc3CC[C@@H]12 [Compound 9e] :: > 75%
C[C@]1(C(=O)NC(=O)[C@@]2(C)CCC[C@]3(C)c4cc(OCCO)ccc4CC[C@@H]23)CCC[C@]2(C)c3cc(O)ccc3CC[C@@H]12 [Compound 9b] :: > 75%

Input line: Record request: Emax value, item C[C@]1(C(=O)NC(=O)[C@@]2(C)CCC[C@]3(C)c4cc(NC(=O)[C@@H](N)CCCCN)ccc4CC[C@@H]23)CCC[C@]2(C)c3cc(O)ccc3CC[C@@H]12 [Compound 9l, Trifluoroacetic Acid Salt]
Output line: > 75%

---

# targetOrTestSystem: LXR beta (Homo sapiens, UniProt P55055)
# Construct: LXR alpha or beta LBD-GST; purchased ThermoFisher PV4658
# Sequence (P55055 222-460 limits assumed): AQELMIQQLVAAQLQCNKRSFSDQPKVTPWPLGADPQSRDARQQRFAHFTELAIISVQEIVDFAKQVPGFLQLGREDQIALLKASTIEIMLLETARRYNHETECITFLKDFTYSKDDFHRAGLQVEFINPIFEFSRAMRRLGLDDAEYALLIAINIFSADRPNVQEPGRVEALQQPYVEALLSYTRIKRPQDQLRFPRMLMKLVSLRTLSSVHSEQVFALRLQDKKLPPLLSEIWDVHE
# protocolNotes: LanthaScreen TR-FRET LXR beta Coactivator Assay (cell-free binding)
# setupConditions: TR-FRET, 12-point curve; read-out: Cell free binding LXRβ IC50
pIC50: −log10 of the molar value. Where a name gives a salt, the structure may show the parent alone.
reportedMetric: pIC50

C[C@]1(C(=O)NC(=O)[C@@]2(C)CCC[C@]3(C)c4cc(NC(=O)CCN)ccc4CC[C@@H]23)CCC[C@]2(C)c3cc(O)ccc3CC[C@@H]12 :: > 8.00
C[C@]1(C(=O)NC(=O)[C@@]2(C)CCC[C@]3(C)c4cc(NC(=O)[C@@H](N)CCCCN)ccc4CC[C@@H]23)CCC[C@]2(C)c3cc(O)ccc3CC[C@@H]12 [Compound 9l, Trifluoroacetic Acid Salt] :: 7.00 to 8.00
O=C(O)Cc1cccc(OCCCN(Cc2cccc(C(F)(F)F)c2Cl)CC(c2ccccc2)c2ccccc2)c1 :: > 8.00
C[C@]1(C(=O)NC(=O)[C@@]2(C)CCC[C@]3(C)c4cc(NC(=O)[C@@H](N)CO)ccc4CC[C@@H]23)CCC[C@]2(C)c3cc(O)ccc3CC[C@@H]12 :: > 8.00

Now let's try a different one.
Input line: Record request: pIC50 value, item C[C@]1(C(=O)NC(=O)[C@@]2(C)CCC[C@]3(C)c4cc(OCCN)ccc4CC[C@@H]23)CCC[C@]2(C)c3cc(O)ccc3CC[C@@H]12
Output line: > 8.00

---

Overview of recorded IC50 for various molecules
# targetOrTestSystem: LXR alpha (Homo sapiens, UniProt Q13133)
# Construct: LXR alpha or beta LBD-GST; purchased ThermoFisher PV4655
# Sequence (Q13133 209-447 limits assumed): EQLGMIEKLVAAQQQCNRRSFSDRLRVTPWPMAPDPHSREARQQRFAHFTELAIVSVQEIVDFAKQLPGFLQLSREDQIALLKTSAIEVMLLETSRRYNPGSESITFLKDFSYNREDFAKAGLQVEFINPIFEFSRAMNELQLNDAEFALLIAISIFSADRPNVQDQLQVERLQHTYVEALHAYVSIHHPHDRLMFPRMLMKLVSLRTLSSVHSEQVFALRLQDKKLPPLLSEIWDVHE
# protocolNotes: LanthaScreen TR-FRET LXR alpha Coactivator Assay (cell-free binding)
# setupConditions: TR-FRET, 12-point curve; read-out: Cell free binding LXRα IC50
Counter-ions that a name gives are not always drawn.

Answered examples (4):
C[C@]1(C(=O)NC(=O)[C@@]2(C)CCC[C@]3(C)c4cc(NC(=O)CCCC(=O)O)ccc4CC[C@@H]23)CCC[C@]2(C)c3cc(O)ccc3CC[C@@H]12 :: < 10 nM
C[C@]1(C(=O)NC(=O)[C@@]2(C)CCC[C@]3(C)c4cc(OCCN)ccc4CC[C@@H]23)CCC[C@]2(C)c3cc(O)ccc3CC[C@@H]12 :: 10 to 100 nM
C[C@]1(C(=O)NC(=O)[C@@]2(C)CCC[C@]3(C)c4cc(NC(=O)[C@@H](N)CCCCN)ccc4CC[C@@H]23)CCC[C@]2(C)c3cc(O)ccc3CC[C@@H]12 [Compound 9l, Trifluoroacetic Acid Salt] :: 10 to 100 nM
C[C@]1(C(=O)NC(=O)[C@@]2(C)CCC[C@]3(C)c4cc(NC(=O)CN)ccc4CC[C@@H]23)CCC[C@]2(C)c3cc(O)ccc3CC[C@@H]12 :: < 1 nM

Now let's try a different one.
Input line: Reported IC50 for LXR alpha (Homo sapiens, UniProt Q13133), given CN(C)c1ccc2c(c1)[C@@]1(C)CCC[C@](C)(C(=O)NC(=O)[C@@]3(C)CCC[C@]4(C)c5cc(O)ccc5CC[C@@H]34)[C@@H]1CC2 ?
Output line: < 10 nM

---

# targetOrTestSystem: LXR alpha (Homo sapiens, UniProt Q13133)
# Construct: LXR alpha or beta LBD-GST; purchased ThermoFisher PV4655
# protocolNotes: LanthaScreen TR-FRET LXR alpha Coactivator Assay (cell-free binding)
# setupConditions: TR-FRET, 12-point curve; read-out: Cell free binding LXRα IC50
Where a name gives a salt, the structure may show the parent alone.
reportedMetric: IC50

C[C@]1(C(=O)NC(=O)[C@@]2(C)CCC[C@]3(C)c4cc(OCCO)ccc4CC[C@@H]23)CCC[C@]2(C)c3cc(O)ccc3CC[C@@H]12 :: < 0.01 µM

Input line: Record request: IC50 value, item C[C@]1(C(=O)NC(=O)[C@@]2(C)CCC[C@]3(C)c4cc(NC(=O)CNCC(=O)O)ccc4CC[C@@H]23)CCC[C@]2(C)c3cc(O)ccc3CC[C@@H]12 [Compound 9r, Trifluoroacetic Acid Salt]
Output line: < 0.01 µM

Input line: Try this molecule next: C[C@]1(C(=O)NC(=O)[C@@]2(C)CCC[C@]3(C)c4cc(NC(=O)CCN)ccc4CC[C@@H]23)CCC[C@]2(C)c3cc(O)ccc3CC[C@@H]12
Output line: < 0.01 µM

Input line: Try this molecule next: C[C@]1(C(=O)NC(=O)[C@@]2(C)CCC[C@]3(C)c4cc(N5CCNCC5)ccc4CC[C@@H]23)CCC[C@]2(C)c3cc(O)ccc3CC[C@@H]12
Output line: < 0.01 µM

Input line: Try this molecule next: C[C@]1(C(=O)NC(=O)[C@@]2(C)CCC[C@]3(C)c4cc(CN)ccc4CC[C@@H]23)CCC[C@]2(C)c3cc(O)ccc3CC[C@@H]12 [Compound 9p, Trifluoroacetic Acid Salt]
Output line: 0.01 to 0.1 µM

Input line: Try this molecule next: C[C@]1(C(=O)NC(=O)[C@@]2(C)CCC[C@]3(C)c4cc(NC(=O)[C@@H](N)CC(=O)O)ccc4CC[C@@H]23)CCC[C@]2(C)c3cc(O)ccc3CC[C@@H]12
Output line: 0.01 to 0.1 µM

Input line: Try this molecule next: CCc1cnc2c(C(F)(F)F)cccc2c1-c1cccc(Oc2cccc(S(=O)(=O)N(C)CCN)c2)c1 [Compound 31, reference compound]
Output line: < 0.01 µM

---

# targetOrTestSystem: LXR alpha (Homo sapiens, UniProt Q13133)
# Construct: LXR alpha or beta LBD-GST; purchased ThermoFisher PV4655
# protocolNotes: LanthaScreen TR-FRET LXR alpha Coactivator Assay (cell-free binding)
# setupConditions: TR-FRET, 12-point curve; read-out: Cell free binding LXRα IC50
Counter-ions that a name gives are not always drawn.
Overview of recorded IC50 for various compounds

Answered examples (2):
C[C@]1(C(=O)NC(=O)[C@@]2(C)CCC[C@]3(C)c4cc(NC(=O)[C@@H](N)Cc5c[nH]cn5)ccc4CC[C@@H]23)CCC[C@]2(C)c3cc(O)ccc3CC[C@@H]12 [Compound 9m, trifluoroacetic acid salt] :: 10 to 100 nM
O=C(O)Cc1cccc(OCCCN(Cc2cccc(C(F)(F)F)c2Cl)CC(c2ccccc2)c2ccccc2)c1 :: < 10 nM

Now let's try a different one.
Input line: Record request: IC50 value, item CNCC(=O)Nc1ccc2c(c1)[C@@]1(C)CCC[C@](C)(C(=O)NC(=O)[C@@]3(C)CCC[C@]4(C)c5cc(O)ccc5CC[C@@H]34)[C@@H]1CC2 [Compound 9k, Trifluoroacetic Acid Salt]
Output line: 10 to 100 nM

---

# protocolNotes: Solubility in water
# Type: physicochemical
# setupConditions: H2O
reportedMetric: solubility (µg/mL)
Quick note: give the figure in µg/mL, leave out the unit.

Input line: Record request: solubility value, item CC(C)[C@H](NC(=O)[C@@H](CCCCNC(=O)COC1CCCCCc2c1nnn2CC1OC2OC3C(CO)OC(OC4C(CO)OC(OC5C(CO)OC(OC6C(CO)OC(OC7C(CO)OC(OC8C(CO)OC(OC9C(CO)OC(OC1C(O)C2O)C(O)C9O)C(O)C8O)C(O)C7O)C(O)C6O)C(O)C5O)C(O)C4O)C(O)C3O)NC(=O)CCOCCOCCOCCOCCNC(=O)CCC(=O)N1Cc2ccccc2C#Cc2ccccc21)C(=O)N[C@@H](C)C(=O)Nc1ccc2c(c1)[C@@]1(C)CCC[C@](C)(C(=O)NC(=O)[C@@]3(C)CCC[C@]4(C)c5cc(O)ccc5CC[C@@H]34)[C@@H]1CC2 (stereo partly shown)
Output line: 75
